experiment-notes: Half life in human liver microsomes up to 100 uM preincubated for 10 mins followed by NADPH addition by UPLC-MS analysis
Type: ADME, microsome
measurement-label: half-life (min)

mol-smiles | measurement-label | readout-units | reported
COc1ccc(-c2nn3c(-c4cccs4)nnc3s2)cc1OC | half-life | min | 4
COc1ccc(-c2nn3c(-c4ccco4)nnc3s2)cc1OC | half-life | min | 5

(A) COc1ccc(-c2nn3c(-c4ccccn4)nnc3s2)cc1OC
(B) c1ccc(-c2nnc3sc(-c4ccc5c(c4)OCO5)nn23)nc1
(C) Cc1cc(-c2nn3c(-c4cccs4)nnc3s2)n[nH]1
(D) c1csc(-c2nnc3sc(-c4cnccn4)nn23)c1
Exercise: Ascending sort, half-life. Output spec: a listing of the labels in the requested order.
Solution: B, D, C, A
(B: 3 min, D: 6 min, C: 14 min, A: 21 min)
